assay: Intrinsic clearance in human liver microsomes assessed per mg of protein
Type: ADME, Microsome
endpoint.label: microsomal CLint (µL/min/mg)

>  <compound>
O=C(NCC1(N2CCCCC2)CCCC1)N1CCC(c2nc(-c3ccc4ccccc4n3)no2)CC1

>  <endpoint.label>
microsomal CLint

>  <recorded.measurement>
49

$$$$

[1] CC(C)N1CCCC1CNC(=O)N1CCC(c2nc(-c3ccc4ccccc4n3)no2)CC1 (stereo unspecified)
[2] CC(C)(CNC(=O)N1CCC(c2nc(-c3ccc4ccccc4n3)no2)CC1)N1CCOCC1
[3] O=C(NCC1(N2CCCC2)CCCC1)N1CCC(c2nc(-c3ccc4ccccc4n3)no2)CC1
Prompt line: Sort entries by microsomal CLint from minimum to maximum value. Order the labels as requested and list them.
Response line: 1, 3, 2
(1: 10 µL/min/mg, 3: 52 µL/min/mg, 2: 112 µL/min/mg)
